Target: furin, P09958;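 also: purified furin at 1:10 enzyme:substrate in 50 mM HEPES pH 7.5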
Sequence (P09958 whole entry): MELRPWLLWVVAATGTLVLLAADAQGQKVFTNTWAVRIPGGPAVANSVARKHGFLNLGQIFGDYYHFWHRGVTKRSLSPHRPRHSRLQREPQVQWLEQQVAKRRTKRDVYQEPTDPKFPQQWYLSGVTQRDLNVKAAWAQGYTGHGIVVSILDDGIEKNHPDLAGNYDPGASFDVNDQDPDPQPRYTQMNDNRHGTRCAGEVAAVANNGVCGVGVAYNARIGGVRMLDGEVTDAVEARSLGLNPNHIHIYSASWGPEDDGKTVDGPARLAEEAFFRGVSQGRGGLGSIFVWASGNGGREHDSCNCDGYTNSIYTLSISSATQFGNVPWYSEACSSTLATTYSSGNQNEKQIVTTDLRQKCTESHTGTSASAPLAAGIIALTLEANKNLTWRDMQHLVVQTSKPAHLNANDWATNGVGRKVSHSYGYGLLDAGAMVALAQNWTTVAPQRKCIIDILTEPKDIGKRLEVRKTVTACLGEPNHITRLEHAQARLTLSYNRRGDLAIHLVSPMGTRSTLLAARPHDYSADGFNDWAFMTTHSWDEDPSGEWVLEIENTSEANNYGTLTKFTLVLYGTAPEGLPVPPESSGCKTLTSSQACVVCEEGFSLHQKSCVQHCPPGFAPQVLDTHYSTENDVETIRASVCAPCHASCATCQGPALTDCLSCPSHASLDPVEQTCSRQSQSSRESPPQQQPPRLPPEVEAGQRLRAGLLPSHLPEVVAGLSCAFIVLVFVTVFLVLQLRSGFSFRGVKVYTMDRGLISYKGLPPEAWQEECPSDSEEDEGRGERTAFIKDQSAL
Assay Info: furin cleavage Z-score vs untreated control; higher = more cleavage, active = 3.5 or more, inactive = 1 or less, 8 variable residues between constant flanks
Measurement Conditions: 15 min
This is one part of the list. No count for the full screen is at hand.
Label rule, in plain words: furin cleavage Z-score of -0.6 and up is true (1), under -0.6 is false (0).

• CAPYYKRYISAGNASASA [HC577] = true (1)

Request: For this sequence, is measured furin cleavage Z-score -0.6 or higher? CARPSRKRRSAGNASASA [FS-1070]
Result: true (1)

Request: Next sequence up: CARVVLSGKPAGNASASA [HC1003]
Result: false (0)

Request: Next sequence up: CAEILLGPADAGNASASA [HC665]
Result: false (0)

Request: Next sequence up: CAGCNCSIYPAGNASASA [HC312]
Result: false (0)

Request: Next sequence up: CARPKRYFTIAGNASASA [FS-2579]
Result: false (0)

Request: Next sequence up: CARVKKEWEEAGNASASA [FS-1871]
Result: true (1)

src = the supplement of paper PMC3545927
